For each of the molecules below, state its GI50.
Tested on: A498
Assay: NCI tumour cell line growth inhibition, 48 h
Activity calls are given as the source filed them. Cut-off read from the data, not from the text of the source: active = GI50 up to about 1.1 µM and inactive = higher.

Guide cases for GI50, answers given:
INSERT INTO assay_data (molecule, result) VALUES
  ('O=C(N/N=C1\C(=O)Nc2c(Cl)cc(Cl)cc21)C(=O)Nc1cccc(C(F)(F)F)c1', '> 100 µM (inactive)'),
  ('CC(C)C(C=O)C(O)(C(F)(F)F)C(F)(F)F (centres undefined)', '> 100 µM (inactive)');

Each of the following entries comes with a recorded value; kindly state GI50 for each.
1. c1ccc2c(c1)[Se]c1ccccc1[Se]2
2. CC(C)(C)OC(=O)NCCCCC1NC(=O)[C@@H]2Cc3c([nH]c4ccccc34)C(C3CCCCC3)N2C1=O (some centres undefined)
3. CCN(CC)CCC1(C(=O)OC)SCCc2ccc(C)cc21 (centres undefined)
4. N=C(N)NC1C(O)C(O)C(O)C(NC(=N)N)C1O (centres undefined)
5. FC(F)(F)C1(C(F)(F)F)O[Si]2(OC(C(F)(F)F)(C(F)(F)F)c3ccccc32)c2ccccc21
6. CC=C/C=C/[C@@H]1O[C@](O)([C@H](CC)C(=O)NC/C=C/C=C(\C)[C@@H](OC)[C@@H](C)[C@@H]2O[C@H](/C=C/C=C/C=C(\C)C(=O)c3c(O)cc[nH]c3=O)[C@H](O)[C@@H]2O)[C@H](O)[C@H](O)C1(C)C

output:
> 100 µM (inactive)
> 100 µM (inactive)
> 100 µM (inactive)
> 100 µM (inactive)
13.7 µM (inactive)
> 100 µM (inactive)

input: Dear colleague, please send me the reported GI50 for Cc1cc2c(c(C(N)=O)c1C)-c1ccccc1C2=O when you can.
output: 51.4 µM (inactive)

Values were extracted from ChEMBL document CHEMBL1201862.
